- assaySystem: α3β4 nAChR (Rattus norvegicus, UniProt P04757+P12392)
- Sequence (P04757 26-499): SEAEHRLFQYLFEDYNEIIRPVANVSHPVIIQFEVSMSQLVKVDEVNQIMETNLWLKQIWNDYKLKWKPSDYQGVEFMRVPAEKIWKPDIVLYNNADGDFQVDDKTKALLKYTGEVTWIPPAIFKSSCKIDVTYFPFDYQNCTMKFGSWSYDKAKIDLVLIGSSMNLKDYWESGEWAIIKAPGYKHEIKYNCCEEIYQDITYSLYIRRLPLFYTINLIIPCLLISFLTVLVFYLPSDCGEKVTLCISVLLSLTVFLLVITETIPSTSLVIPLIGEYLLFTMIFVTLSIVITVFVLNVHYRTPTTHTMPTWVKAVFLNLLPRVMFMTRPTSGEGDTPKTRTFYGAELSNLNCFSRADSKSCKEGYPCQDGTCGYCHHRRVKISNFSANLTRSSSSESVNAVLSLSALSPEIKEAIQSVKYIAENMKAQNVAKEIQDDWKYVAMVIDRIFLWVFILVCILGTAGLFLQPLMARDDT
- Sequence (P12392 21-495): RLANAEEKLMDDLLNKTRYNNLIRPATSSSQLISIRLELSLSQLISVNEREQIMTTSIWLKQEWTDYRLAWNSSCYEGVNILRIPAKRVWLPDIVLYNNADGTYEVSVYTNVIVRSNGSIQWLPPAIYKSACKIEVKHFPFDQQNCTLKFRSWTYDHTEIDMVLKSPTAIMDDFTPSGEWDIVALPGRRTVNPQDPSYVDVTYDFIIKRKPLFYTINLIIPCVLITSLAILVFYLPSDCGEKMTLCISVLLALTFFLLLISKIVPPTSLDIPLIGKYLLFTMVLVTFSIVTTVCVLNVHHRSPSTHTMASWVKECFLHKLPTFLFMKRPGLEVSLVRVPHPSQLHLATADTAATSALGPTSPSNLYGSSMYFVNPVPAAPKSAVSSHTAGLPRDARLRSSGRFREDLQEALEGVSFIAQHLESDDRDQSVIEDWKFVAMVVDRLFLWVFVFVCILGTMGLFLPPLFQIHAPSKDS
- assayText: nAChR functional assay, membrane potential change
- Assay type: cell-based
reportedEndpoint: IC50

Ask | // IC50 lookup, key: CC(C)(C)C1CCC(CN2C(=N)N(CCCC[C@H]3CNC(=N)N3CCc3cccnc3)C[C@H]2Cc2ccccc2)CC1 (stereo partly shown)
Reply | > 10 µM

# credit: paper PMC4106133
